Recorded values, source patent US12441773B2.

Test: in vitro
Format: cell-based
Conditions: human, human red blood cells
Experimental: FIG. 7: The in vitro toxicity of soluble DGL13K and PEG-pro-DGL 13K was tested against human Red Blood Cells and hemolysis recorded (% lysis compared to dH2O). The dose causing lysis of 50% (LD50) of human red blood cells (RBC) was determined and the therapeutic index (Tx Indx) was calculated as LD50/MIC.

[
  {
    "substance": "H-GKIIKLKASLKLL-NH2 [LGL13K]",
    "HC50 (µg/mL)": 188
  }
]

* * *

System: Staphylococcus aureus
Format: cell-based
Where a SMILES comes first, the peptide text is derived from it. [ ]: non-standard residue; d: D form.
assay_endpoint: Minimal Inhibitory Concentration S.a.

[
  {
    "compound": "CC[C@@H](C)[C@@H](NC(=O)[C@@H](CCCCN)NC(=O)CN)C(=O)N[C@@H](C(=O)N[C@H](CCCCN)C(=O)N[C@H](CC(C)C)C(=O)N[C@H](CCCCN)C(=O)N[C@H](C)C(=O)N[C@H](CO)C(=O)N[C@H](CC(C)C)C(=O)N[C@H](CCCCN)C(=O)N[C@H](CC(C)C)C(=O)N[C@H](CC(C)C)C(N)=O)[C@H](C)CC [DGL13K] (H-G[dK][dI][dI][dK][dL][dK][dA][dS][dL][dK][dL][dL]-NH2)",
    "observed_result": "1.3 to 2.6 µg/mL"
  }
]
